- target_or_test_system: UniProt P11712
- Sequence (P11712 whole entry): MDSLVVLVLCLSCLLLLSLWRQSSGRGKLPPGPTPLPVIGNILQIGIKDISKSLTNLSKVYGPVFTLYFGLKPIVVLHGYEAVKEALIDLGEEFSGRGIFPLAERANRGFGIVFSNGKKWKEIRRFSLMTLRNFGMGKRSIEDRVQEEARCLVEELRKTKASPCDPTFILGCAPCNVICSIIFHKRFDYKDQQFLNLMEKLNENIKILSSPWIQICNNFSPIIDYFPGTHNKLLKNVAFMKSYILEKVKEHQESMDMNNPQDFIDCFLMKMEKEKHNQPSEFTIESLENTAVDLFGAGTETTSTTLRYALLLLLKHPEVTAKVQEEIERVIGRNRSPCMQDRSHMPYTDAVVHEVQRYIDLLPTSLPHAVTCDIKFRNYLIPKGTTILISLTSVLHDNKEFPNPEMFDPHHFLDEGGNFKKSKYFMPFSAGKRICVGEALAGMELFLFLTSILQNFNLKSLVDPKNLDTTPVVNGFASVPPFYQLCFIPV
- assay_summary: Inhibition of CYP2C9 (unknown origin) at 1 uM preincubated for 10 mins followed by NADPH addition and measured after 20 mins by luminescence based microplate reader analysis relative to control
- Format: ADME
- experimental_setup: time 30 min
result_type: inhibition at 20 min, 1 µM

Exercise: Provide the documented inhibition at 20 min, 1 µM with UniProt P11712 as the system for COc1ccc(S(=O)(=O)N[C@H]2CCN(C(=O)CC[C@H](N)C(=O)O)C2)cc1C(=O)Nc1ccccc1Cl.Cl
Solution: < 1%

###

- target_or_test_system: 5-hydroxytryptamine receptor 2B (Homo sapiens, UniProt P41595)
- Sequence (P41595 whole entry): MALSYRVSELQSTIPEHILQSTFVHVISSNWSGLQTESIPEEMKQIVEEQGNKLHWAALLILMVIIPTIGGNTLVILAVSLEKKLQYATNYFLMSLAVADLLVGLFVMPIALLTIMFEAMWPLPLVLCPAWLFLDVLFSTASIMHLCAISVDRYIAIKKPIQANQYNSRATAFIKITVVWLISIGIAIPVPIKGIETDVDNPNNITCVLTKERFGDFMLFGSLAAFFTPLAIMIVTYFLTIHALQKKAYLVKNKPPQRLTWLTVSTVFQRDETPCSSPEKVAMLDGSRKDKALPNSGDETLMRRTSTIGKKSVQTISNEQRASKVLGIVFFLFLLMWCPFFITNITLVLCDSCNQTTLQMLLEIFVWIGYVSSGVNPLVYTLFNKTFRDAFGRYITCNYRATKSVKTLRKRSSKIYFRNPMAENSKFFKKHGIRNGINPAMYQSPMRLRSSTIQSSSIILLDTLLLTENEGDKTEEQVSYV
- assay_summary: Binding affinity to 5-HT2B (unknown origin)
result_type: IC50 (nM)
Provide the reading as a plain figure in nM.

Exercise: Provide the documented IC50 with 5-hydroxytryptamine receptor 2B (Homo sapiens, UniProt P41595) as the system for O=C(c1ccc(-c2ccccc2)cc1)N1CCC(c2cc3ccccc3[nH]2)CC1
Solution: 2.4
